# system: PRMT5 (Homo sapiens)
# Construct: purchased Viva (custom protein)
# Sequence (O14744 whole entry): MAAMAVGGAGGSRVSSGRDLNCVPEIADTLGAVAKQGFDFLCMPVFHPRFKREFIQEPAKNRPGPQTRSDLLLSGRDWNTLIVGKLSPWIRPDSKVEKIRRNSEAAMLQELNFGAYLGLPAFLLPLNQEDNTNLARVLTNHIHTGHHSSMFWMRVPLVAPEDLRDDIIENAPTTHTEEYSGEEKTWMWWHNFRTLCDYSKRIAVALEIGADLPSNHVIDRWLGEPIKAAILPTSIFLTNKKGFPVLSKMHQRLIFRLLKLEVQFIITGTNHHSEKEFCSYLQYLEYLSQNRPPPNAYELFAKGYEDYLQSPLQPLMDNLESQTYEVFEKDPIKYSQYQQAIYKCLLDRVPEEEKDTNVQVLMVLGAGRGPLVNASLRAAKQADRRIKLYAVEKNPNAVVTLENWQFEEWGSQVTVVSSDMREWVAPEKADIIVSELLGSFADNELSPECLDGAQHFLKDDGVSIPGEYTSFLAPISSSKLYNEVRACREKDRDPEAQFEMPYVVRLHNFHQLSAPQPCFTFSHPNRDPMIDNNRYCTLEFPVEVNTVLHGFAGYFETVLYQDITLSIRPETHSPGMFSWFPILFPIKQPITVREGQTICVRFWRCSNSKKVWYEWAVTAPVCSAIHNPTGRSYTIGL
# Sequence (Q9BQA1 whole entry partner): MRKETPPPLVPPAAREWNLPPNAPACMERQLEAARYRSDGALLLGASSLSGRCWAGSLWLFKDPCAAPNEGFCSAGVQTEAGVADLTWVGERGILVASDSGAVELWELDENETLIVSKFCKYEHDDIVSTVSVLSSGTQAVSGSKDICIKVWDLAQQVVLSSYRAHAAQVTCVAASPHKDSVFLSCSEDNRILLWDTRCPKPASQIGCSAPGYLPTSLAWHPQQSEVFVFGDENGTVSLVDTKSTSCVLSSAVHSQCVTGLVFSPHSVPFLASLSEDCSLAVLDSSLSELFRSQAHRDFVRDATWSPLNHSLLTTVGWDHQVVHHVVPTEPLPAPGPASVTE
# protocol summary: PRMT5 biochemical IC50 assay with SAM as cofactor
# conditions used: PRMT5, SAM as cofactor; read-out: SAM IC50
reported endpoint: IC50

Take a look at these entries with their results.
CCc1cc(NC(=O)C(=O)N2C[C@@H](C)CC[C@@H]2c2cccc(C3CCN(C)CC3)c2)cnc1N	< 50 nM
C[C@@H]1CC[C@@H](c2ccc(-c3cc[nH]n3)cc2)N(C(=O)C(=O)Nc2cncc(C(N)=O)c2)C1 (single isomer, unassigned)	> 500 nM
Cc1cc(NC(=O)C(=O)N2C[C@H](C)CC[C@H]2c2ccc(C(N)=O)s2)cnc1N (racemic) [Compound 644]	50 to 500 nM
C[C@@H]1CC[C@@H](c2ccc(NCC(F)(F)F)cc2)N(C(=O)C(=O)Nc2cncc(C(N)=O)c2)C1 (single isomer, unassigned)	50 to 500 nM
Cc1cc(NC(=O)C(=O)N2C[C@H](C)CC[C@H]2c2cscn2)cnc1N (single isomer, unassigned)	> 500 nM
CNc1ccc([C@@H]2CC[C@@H](C)CN2C(=O)C(=O)Nc2cncc(C(N)=O)c2)cc1 (single isomer, unassigned)	> 500 nM
Cc1cc(NC(=O)C(=O)N2C[C@@H](C)CC[C@@H]2c2ccc3sc(-c4nccn4C)nc3c2)cnc1N	50 to 500 nM
C[C@@H]1CC[C@@H](c2ccc(Cl)cc2)N(C(=O)C(=O)Nc2cncc(C(N)=O)c2)C1 (racemic) [Compound 212]	50 to 500 nM
CC(=O)N[C@H]1C[C@H]([C@H]2CC[C@@H](C)CN2C(=O)C(=O)Nc2cnc(N)c(C)c2)C1 (single isomer, unassigned)	50 to 500 nM
COc1ncc(NC(=O)C(=O)N2C[C@@H](C)CC[C@@H]2c2ccc3[nH]c(=O)ccc3c2)cc1C(N)=O (single isomer, unassigned)	50 to 500 nM

Input line: Respond only with IC50 recorded for Cc1cc(NC(=O)C(=O)N2C[C@H](C)CC[C@H]2[C@H]2CC[C@H](O)CC2)cnc1N (single isomer, unassigned)
Output line: 50 to 500 nM

Input line: Respond only with IC50 recorded for CCc1cc(NC(=O)C(=O)N2C[C@@H](C)CC[C@@H]2c2ccc3cnccc3c2)cnc1N (single isomer, unassigned)
Output line: > 500 nM

Input line: Respond only with IC50 recorded for NC(=O)c1cncc(NC(=O)C(=O)N2CCCCC2C2CCCCC2)c1 (single isomer, unassigned) [Compound 113]
Output line: 50 to 500 nM
